- measurement.target: DENV4 NS2B-NS3pro (Dengue virus type 4, UniProt Q2YHF0, DELINS1442-1474GGGGSGGGG)
- Sequence (Q2YHF0 1475-1660, added parts left off, stated change not applied): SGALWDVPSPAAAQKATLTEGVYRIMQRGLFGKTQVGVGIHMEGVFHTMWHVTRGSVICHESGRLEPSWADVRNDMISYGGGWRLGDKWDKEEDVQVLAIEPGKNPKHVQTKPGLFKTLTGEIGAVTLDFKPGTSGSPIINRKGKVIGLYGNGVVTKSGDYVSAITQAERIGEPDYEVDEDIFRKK
- test.description: In vitro inhibition assay of recombinant NS2B-NS3pro with fluorogenic AMC peptide substrate
- Assay type: biochemical, dengue virus type 4 (DENV4)
- condition.parameters: inhibition activity at 100 μM, 1.65 µM AMC peptide substrate; Table 2
Here, each record is paired with measured Inhibition data.
Report as a plain number; the unit % is understood.

# count of solved cases: 3
compound: Cc1nnc2c(Nc3cccc(C(=O)O)c3)nc3ccc(C(=O)c4ccccc4)cc3n12
Inhibition / %: 58.8
--
compound: O=S(=O)(c1ccc(-c2csc(N3N=C(c4cccs4)CC3c3ccc(F)cc3)n2)cc1)N1CCCCC1 (stereo not shown)
Inhibition / %: 85.2
--
compound: O=C(O)CCCNc1cc(N2CCCCCC2)c2noc3c2c1C(=O)c1ccccc1-3
Inhibition / %: 82.5

Now take the following compound into account.
q: Looking for the measured Inhibition of O=C(NCCN1CCCCC1)c1cccc(Nc2ccc(-c3cccc(F)c3)nn2)c1 , can you help?
a: 66.6

----------
- measurement.target: DENV4 NS2B-NS3pro (Dengue virus type 4, UniProt Q2YHF0, DELINS1442-1474GGGGSGGGG)
- test.description: In vitro inhibition assay of recombinant NS2B-NS3pro with fluorogenic AMC peptide substrate
- Assay type: biochemical, dengue virus type 4 (DENV4)
- condition.parameters: primary inhibition assay at a 100 μM concentration of inhibitors; Table S1
Here, each record is paired with measured Inhibition Activity data.

# count of solved cases: 3
compound: O=C(O)CCCNc1cc(N2CCCCCC2)c2noc3c2c1C(=O)c1ccccc1-3 [Compound 27]
endpoint.label: Inhibition Activity
experimental.result: 82.53%
--
compound: Cc1nc2sc(C(=O)c3ccc(-c4ccc(C(=O)c5sc6nc(C)c(C)c(C)c6c5N)cc4)cc3)c(N)c2c(C)c1C [Compound 10]
endpoint.label: Inhibition Activity
experimental.result: 7.59%
--
compound: O=C(Nc1ccc(Br)cc1C(=O)c1ccccc1)c1cccc(Nc2nc(-c3ccccc3)c3cc(Br)ccc3n2)c1 [Compound 7]
endpoint.label: Inhibition Activity
experimental.result: 21.31%

q: Looking for the measured Inhibition Activity of Cc1nnc2c(Nc3cccc(C(=O)O)c3)nc3ccc(C(=O)c4ccccc4)cc3n12 [Compound 5] , can you help?
a: 58.83%

----------
- measurement.target: DENV4 NS2B-NS3pro (Dengue virus type 4, UniProt Q2YHF0, DELINS1442-1474GGGGSGGGG)
- test.description: In vitro inhibition assay of recombinant NS2B-NS3pro with fluorogenic AMC peptide substrate
- Type: biochemical, dengue virus type 4 (DENV4)
- condition.parameters: primary inhibition assay at a 100 μM concentration of inhibitors; Table S1
endpoint.label: Inhibition Activity (%)
Report as a plain number; the unit % is understood.

# count of solved cases: 5
molecule: C(=C\CSc1nnc(-c2ccccc2)c(-c2ccccc2)n1)/CSc1nnc(-c2ccccc2)c(-c2ccccc2)n1 [Compound 33]
Inhibition Activity (%): 40.52
--
molecule: CCN(CC)CCn1c(NC(=O)c2ccc(Cn3nc([N+](=O)[O-])c(Cl)c3C)o2)nc2ccccc21 [Compound 2]
Inhibition Activity (%): 95.23
--
molecule: Cc1cccc(-c2nc3nc(C)cc(Nc4ccc(CC(=O)O)cc4)n3n2)c1 [Compound 15]
Inhibition Activity (%): 17.36
--
molecule: Nc1nonc1-c1nc2ccccc2n1Cc1ccc(Cn2c(-c3nonc3N)nc3ccccc32)cc1 [Compound 25]
Inhibition Activity (%): 36.45
--
molecule: COc1cccc(-n2nc(C(=O)NC3CCCCCC3)c3ccccc3c2=O)c1 [Compound 9]
Inhibition Activity (%): 23.33

Now take the following molecule into account.
q: DENV4 NS2B-NS3pro (Dengue virus type 4, UniProt Q2YHF0, DELINS1442-1474GGGGSGGGG) / Inhibition Activity / Cc1cccc(C)c1-n1c(SCc2cc(=O)n3cc(Cl)ccc3n2)nc2c(sc(=S)n2-c2c(C)cccc2C)c1=O [Compound 22] : value?
a: 91.65

----------
Here, each record is paired with measured Inhibition Activity data.
- measurement.target: DENV4 NS2B-NS3pro (Dengue virus type 4, UniProt Q2YHF0, DELINS1442-1474GGGGSGGGG)
- test.description: In vitro inhibition assay of recombinant NS2B-NS3pro with fluorogenic AMC peptide substrate
- Type: biochemical, dengue virus type 4 (DENV4)
- condition.parameters: primary inhibition assay at a 100 μM concentration of inhibitors; Table S1
Report as a plain number; the unit % is understood.

# count of solved cases: 2
compound: O=C1c2ccc(-n3c(=O)c4cc5c(=O)n(-c6ccc7c(c6)C(=O)N(c6ccccc6)C7=O)c(=O)c5cc4c3=O)cc2C(=O)N1c1ccccc1 [Compound 4]
Inhibition Activity / %: 4.64
--
compound: O=C(NCCN1CCCCC1)c1cccc(Nc2ccc(-c3cccc(F)c3)nn2)c1 [Compound 29]
Inhibition Activity / %: 66.55

Now take the following compound into account.
q: Looking for the measured Inhibition Activity of O=C1c2ccccc2C(=O)N1c1cccc(-c2csc(N3N=C(c4ccccc4)CC3c3ccccc3)n2)c1 (stereo not drawn) [Compound 21] , can you help?
a: 21.27

----------
- measurement.target: DENV4 NS2B-NS3pro (Dengue virus type 4, UniProt Q2YHF0, DELINS1442-1474GGGGSGGGG)
- test.description: In vitro inhibition assay of recombinant NS2B-NS3pro with fluorogenic AMC peptide substrate
- Format: biochemical, dengue virus type 4 (DENV4)
- condition.parameters: primary inhibition assay at a 100 μM concentration of inhibitors; Table S1
Here, each record is paired with measured Inhibition Activity data.
Report as a plain number; the unit % is understood.

compound: COC(=O)CSc1ncn(-c2nc(N3CCCCC3)nc(N3CCCCC3)n2)n1
measurement.target: DENV4 NS2B-NS3pro (Dengue virus type 4, UniProt Q2YHF0, DELINS1442-1474GGGGSGGGG)
unit.text: %
experimental.result: 10.28

q: DENV4 NS2B-NS3pro (Dengue virus type 4, UniProt Q2YHF0, DELINS1442-1474GGGGSGGGG) / Inhibition Activity / O=S(=O)(c1ccc(-c2csc(N3N=C(c4cccs4)CC3c3ccc(F)cc3)n2)cc1)N1CCCCC1 (stereo not shown) : value?
a: 85.17

q: Next compound: CC(=O)N1N=C(c2cc(-c3ccccc3)nc3ccccc23)OC1c1ccc(C(=O)O)cc1 (stereo not shown)
a: 98.15

q: Next compound: Cc1nn(-c2ccccc2)c2c1nc(CCC(=O)NCCN1CCN(C)CC1)c(=O)n2C
a: 29.46
